# study-target: melanocortin-3 receptor (human, UniProt P41968 1-323)
# Sequence (P41968 whole entry): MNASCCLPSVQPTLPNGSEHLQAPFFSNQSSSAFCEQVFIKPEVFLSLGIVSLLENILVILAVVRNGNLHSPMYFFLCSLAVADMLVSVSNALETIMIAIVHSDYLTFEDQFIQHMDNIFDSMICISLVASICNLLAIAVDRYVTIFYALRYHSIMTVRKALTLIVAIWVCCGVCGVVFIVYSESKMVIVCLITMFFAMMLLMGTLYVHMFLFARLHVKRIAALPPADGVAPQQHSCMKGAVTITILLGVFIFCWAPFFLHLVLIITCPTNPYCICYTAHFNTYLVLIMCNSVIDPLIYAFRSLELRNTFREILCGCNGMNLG
# experimental-protocol: cell-based or functional assay
Bridge positions count the residues as written; N and C are the ends. Square brackets hold non-standard residues; d marks the D form. Pen = CC(C)(S)[C@H](N)C(=O)O; hCys = N[C@@H](CCS)C(=O)O
measured-metric: Ratios of EC50 values MC 3/4 (MC3R against MC4R) (ratio)

binder	reported-measurement
Ac-RC[dA]R[dF]RWC-NH2 (disulfide 2-8; SMILES CC(=O)N[C@@H](CCCNC(=N)N)C(=O)N[C@H]1CSSC[C@@H](C(N)=O)NC(=O)[C@H](Cc2c[nH]c3ccccc23)NC(=O)[C@H](CCCNC(=N)N)NC(=O)[C@@H](Cc2ccccc2)NC(=O)[C@H](CCCNC(=N)N)NC(=O)[C@@H](C)NC1=O) [Ac-Arg-cyclo[Cys-D-Ala-Arg-D-Phe-Arg-Trp-Cys]-NH2]	1.45
Ac-RC[dI]H[dF]RWC-NH2 (disulfide 2-8) [Ac-Arg-cyclo[Cys-D-Ile-His-D-Phe-Arg-Trp-Cys]-NH2]	0.96
Ac-R[hCys][dA][dF]RW[Pen]-NH2 (disulfide 2-7; SMILES CC(=O)N[C@@H](CCCNC(=N)N)C(=O)N[C@H]1CCSSC(C)(C)[C@@H](C(N)=O)NC(=O)[C@H](Cc2c[nH]c3ccccc23)NC(=O)[C@H](CCCNC(=N)N)NC(=O)[C@@H](Cc2ccccc2)NC(=O)[C@@H](C)NC1=O) [Ac-Arg-cyclo[hCys-D-Ala-D-Phe-Arg-Trp-Pen]-NH2]	17
